The entries below come with measured logP values attached.
READOUT: logP

{"SMILES": "COC(=O)CS(=O)(=O)c1ccccc1", "OBS VALUE": 0.93}
{"SMILES": "Cc1ccc(S(=O)(=O)C2(C(=O)OC(C)C)CCCC2)cc1", "OBS VALUE": 2.88}
{"SMILES": "COC(=O)CS(=O)(=O)c1ccc(Cl)cc1", "OBS VALUE": 1.31}
{"SMILES": "CC(C)OC(=O)CS(=O)(=O)c1ccc(Cl)cc1", "OBS VALUE": 2.04}
{"SMILES": "COC(=O)CS(=O)(=O)c1ccc(Br)cc1", "OBS VALUE": 1.52}
{"SMILES": "COC(=O)C1(S(=O)(=O)c2ccc(C)cc2)CCCCC1", "OBS VALUE": 2.54}

###

- CONDITIONS: 25 °C
Give y when the value for solubility is at least 100 µM. Give n when it is less.

{"SMILES": "CC(C)(C)OC(=O)C1(S(=O)(=O)c2ccc(Cl)cc2)CC1", "ANSWER LABEL": "n"}
{"SMILES": "CC(C)OC(=O)C1(S(=O)(=O)c2ccc([N+](=O)[O-])cc2)CC1", "ANSWER LABEL": "n"}
{"SMILES": "COC(=O)C1(S(=O)(=O)c2ccc(Cl)cc2)CCC1", "ANSWER LABEL": "y"}
{"SMILES": "Cc1ccc(S(=O)(=O)C2(C(=O)OC(C)C)CC2)cc1", "ANSWER LABEL": "y"}
{"SMILES": "COC(=O)C1(S(=O)(=O)c2ccc(C)cc2)CC1", "ANSWER LABEL": "y"}
{"SMILES": "COC(=O)C1(S(=O)(=O)c2ccccc2)CCCCC1", "ANSWER LABEL": "y"}
{"SMILES": "COC(=O)C1(S(=O)(=O)c2ccc([N+](=O)[O-])cc2)CC1", "ANSWER LABEL": "y"}
{"SMILES": "COC(=O)C1(S(=O)(=O)c2ccc(Cl)cc2)CC1", "ANSWER LABEL": "y"}
{"SMILES": "COC(=O)C1(S(=O)(=O)c2ccc(Br)cc2)CCC1", "ANSWER LABEL": "y"}
{"SMILES": "COC(=O)C1(S(=O)(=O)c2ccc(Br)cc2)CCCCC1", "ANSWER LABEL": "n"}
{"SMILES": "COC(=O)C1(S(=O)(=O)c2ccc(Br)cc2)CC1", "ANSWER LABEL": "y"}

###

- CONDITIONS: 25 °C
READOUT: log10 of solubility (log10 of the value in µM)

{"SMILES": "CC(C)OC(=O)C1(S(=O)(=O)c2ccc(Cl)cc2)CC1", "log10 of solubility": 2.46}
{"SMILES": "COC(=O)C1(S(=O)(=O)c2ccccc2)CCCC1", "log10 of solubility": 3.45}
{"SMILES": "COC(=O)C1(S(=O)(=O)c2ccccc2)CC1", "log10 of solubility": 3.74}
{"SMILES": "CC(C)OC(=O)C1(S(=O)(=O)c2ccc(Cl)cc2)CCCC1", "log10 of solubility": 1.35}
{"SMILES": "CCOC(=O)C1(S(=O)(=O)c2ccc(C)cc2)CCC1", "log10 of solubility": 3.04}
{"SMILES": "COC(=O)C1(S(=O)(=O)c2ccccc2)CCC1", "log10 of solubility": 3.00}
{"SMILES": "CC(C)OC(=O)C1(S(=O)(=O)c2ccc([N+](=O)[O-])cc2)CCCCCC1", "log10 of solubility": 0.93}
{"SMILES": "CC(C)OC(=O)C1(S(=O)(=O)c2ccc([N+](=O)[O-])cc2)CCC1", "log10 of solubility": 2.24}
{"SMILES": "CCOC(=O)C1(S(=O)(=O)c2ccc(C)cc2)CC1", "log10 of solubility": 2.99}

Source listed as the OPERA property sets (Mansouri et al. 2018).
